These data points were gathered from PubChem BioAssay AID687014.

tested on: Nuclear hormone receptor DAF-12 (Heterodera glycines), GAL4 fusion; assay: H. glycines DAF-12 receptor agonists, primary screen, cell-based, luminescence, HEK293, GAL4 fusion, UAS-luciferase (AID 687014); settings: HEK293 GAL4-hgDAF12 UAS-luciferase reporter, agonist luminescence; at 6.8 µM; hits give high values; normalized to butyrate control;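 note: 0% = DMSO wells and 100% = sodium butyrate wells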
About 6,800 (1.8%) of roughly 370,000 compounds were called active. Many of the other results were omitted from the sample, so actives are more common in it than they were.
Each entry below lists one item and its recorded activation value.

Answered examples (6):
COMPOUND | EXPERIMENTAL_TARGET | READOUT_TYPE | MEASUREMENT
CCOc1ccc(S(=O)(=O)NCC2CCCO2)cc1 (configuration not stated) | Nuclear hormone receptor DAF-12 (Heterodera glycines), GAL4 fusion | activation | -0.13% (inactive)
CCC(NC(=O)C1C2C=CC3(CN(Cc4ccccc4)C(=O)C13)O2)c1ccccc1 (configuration not stated) | Nuclear hormone receptor DAF-12 (Heterodera glycines), GAL4 fusion | activation | -3.86% (inactive)
CS(=O)(=O)N(CC(=O)N1CCOCC1)c1ccc2c3c(cccc13)CC2 | Nuclear hormone receptor DAF-12 (Heterodera glycines), GAL4 fusion | activation | 0.28% (inactive)
CCCNC(=O)C1CC(=O)N(c2ccc(OCc3ccccc3)cc2)C1 (configuration not stated) | Nuclear hormone receptor DAF-12 (Heterodera glycines), GAL4 fusion | activation | 11% (active)
CCOC(=O)c1ccc2c(c1)nc(C)n2CC | Nuclear hormone receptor DAF-12 (Heterodera glycines), GAL4 fusion | activation | 12.8% (active)
CC(C)n1c(O)c(N=Nc2ccccn2)c2ccccc21 | Nuclear hormone receptor DAF-12 (Heterodera glycines), GAL4 fusion | activation | 1.77% (inactive)

Kindly review the next compound as well.
Ask | Looking for the measured activation of Cc1ccc(C(=O)Nc2ncccc2C)cc1S(=O)(=O)N1CCOCC1 , can you help?
Reply | 1.72% (inactive)

* * *

tested on: Nuclear hormone receptor DAF-12 (Heterodera glycines), GAL4 fusion; assay: H. glycines DAF-12 receptor agonists, primary screen, cell-based, luminescence, HEK293, GAL4 fusion, UAS-luciferase (AID 687014); details: HEK293 GAL4-hgDAF12 UAS-luciferase reporter, agonist luminescence; at 6.8 µM; normalized to butyrate control;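 note: 0% = DMSO wells and 100% = sodium butyrate wells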
Hit rate of the full screen: of about 370,000 compounds, about 6,800 (1.8%) were called active.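 How the source made its calls: active means activation above a cutoff set at the mean of all screened compounds plus 3 SD (cut at about 10% in these data); inactive means the rest.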 The entries come from a sample that favours actives as a whole.
API: response.call in active, inactive

MOLECULE | DISCRETE_LABEL
CC(=O)c1cc(C#N)c(N2CC(C)OC(C)C2)nc1C (stereo unspecified) | inactive
O=c1c2c(nc3n1CCCCC3)sc1c(O)cccc12 | active
COC(=O)CC1CCc2cc(C)cc(C(CC(C)C)NC(=O)[C@H](CC(C)C)NC(=O)OCc3ccccc3)c2O1 (stereo partly specified) | inactive
CC(=O)c1ccc(NC(=O)c2sc3nc4n(c(=O)c3c2C)CCCCC4)cc1 | inactive
CC(=O)c1cc(C#N)c(SCC(=O)C(C)(C)C)nc1C | active

Continue with the next molecule.
Ask | Given N=c1c2c3c(sc2nc2n1CCCCC2)CCCC3 , state the outcome it received in this test.
Reply | inactive

* * *

system: Nuclear hormone receptor DAF-12 (Heterodera glycines), GAL4 fusion; assay: H. glycines DAF-12 receptor agonists, primary screen, cell-based, luminescence, HEK293, GAL4 fusion, UAS-luciferase (AID 687014); settings: HEK293 GAL4-hgDAF12 UAS-luciferase reporter, agonist luminescence; at 6.8 µM; normalized to butyrate control;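 note: 0% = DMSO wells and 100% = sodium butyrate wells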
The whole screen tested about 370,000 compounds, of which about 6,800 (1.8%) were called active.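 How the source made its calls: active means activation above a cutoff set at the mean of all screened compounds plus 3 SD (cut at about 10% in these data); inactive means the rest.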 The sample holds actives, similar compounds and a random draw of the others, so the mix is not that of the screen.
API: response.call in active, inactive

COMPOUND | DISCRETE_LABEL
Cc1ccc(Nc2nc(-c3ccc(O)cc3O)cs2)nc1 | active
Cc1ccc2nc(-c3ccc(Br)cc3)cn2c1 | inactive
CC(C)(C)C(=O)c1cnc(Nc2ccccc2)s1 | active
CCCCNc1cccc2c1S(=O)(=O)N[C@@H](C)CO2 | inactive
CC(=O)N1Cc2cc(C(=O)NCc3cccc(F)c3)nc(-c3cccc(C4=CCCC4)c3)c2[C@H]1CCO | inactive

Ask | Given CC1CN(C(=S)Nc2ccc(S(N)(=O)=O)cc2)CC(C)O1 (stereo not given) , state the outcome it received in this test.
Reply | inactive

Ask | Given CCN(CC(=O)NCCc1ccccc1)S(=O)(=O)c1ccc(C)cc1 , state the outcome it received in this test.
Reply | inactive

Ask | Given O=C(CSc1nnc(-c2ccccc2)n1Cc1ccco1)Nc1ccccc1-c1ccccc1 , state the outcome it received in this test.
Reply | inactive

Ask | Given O=C(NC1CCC1)c1ccc(C#Cc2cccc(F)c2)c[n+]1[O-] , state the outcome it received in this test.
Reply | inactive

Ask | Given CCN(c1cccc(C)c1)S(=O)(=O)c1ccc(-c2coc(C)n2)cc1 , state the outcome it received in this test.
Reply | inactive

Ask | Given COCCCNC(=O)C[C@H]1C[C@@]2(C(=O)OC)C(=C[C@H](C(C)(C)C)O[C@@H]2C)N(Cc2ccc3c(c2)OCO3)C1=O , state the outcome it received in this test.
Reply | inactive

Ask | Given CCc1ccccc1NC(=O)CSc1nnc(-c2cccs2)o1 , state the outcome it received in this test.
Reply | inactive

Ask | Given CCS(=O)(=O)n1nc(-c2ccc(OC)cc2)nc1SC , state the outcome it received in this test.
Reply | inactive

Ask | Given CC(=O)Nc1cnc(-c2ccc(O)cc2C)cn1 , state the outcome it received in this test.
Reply | inactive

Ask | Given O=C(NCCC1=CCCCC1)c1ccc(Cl)c([N+](=O)[O-])c1 , state the outcome it received in this test.
Reply | inactive

* * *

test system: Nuclear hormone receptor DAF-12 (Heterodera glycines), GAL4 fusion; assay: H. glycines DAF-12 receptor agonists, primary screen, cell-based, luminescence, HEK293, GAL4 fusion, UAS-luciferase (AID 687014); details: HEK293 GAL4-hgDAF12 UAS-luciferase reporter, agonist luminescence; at 6.8 µM; normalized to butyrate control;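 note: 0% = DMSO wells and 100% = sodium butyrate wells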
The whole screen tested about 370,000 compounds, of which about 6,800 (1.8%) were called active.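 How the source made its calls: active means activation above a cutoff set at the mean of all screened compounds plus 3 SD (cut at about 10% in these data); inactive means the rest.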 This excerpt belongs to a sample that is enriched for actives.
API: response.call in active, inactive

Worked cases, answers included:
MOLECULE | DISCRETE_LABEL
COCCNC(=O)c1ccc2nc(Cc3ccc(OC)c(OC)c3)oc2c1 | inactive
Cc1cccc(-n2ncc(Cl)c(Cl)c2=O)c1 | inactive
COc1cc(N/C=C2\CC(=O)NC(C)=C2C#N)cc(OC)c1OC | inactive

Ask | Given COc1ccc(C(=O)COC(=O)C(O)c2ccccc2)c(OC)c1 (stereo not drawn) , state the outcome it received in this test.
Reply | active

Ask | Given COc1ccc(N2CCN(C(=S)Nc3ccc(S(N)(=O)=O)cc3)CC2)cc1 , state the outcome it received in this test.
Reply | inactive

Ask | Given Cc1cc(=O)[nH]c(SCC(=O)Nc2ccc(F)cc2F)n1 , state the outcome it received in this test.
Reply | inactive

Ask | Given Cc1cc(OC(=O)c2ccccc2Cl)ccc1N1C(=O)CCC1=O , state the outcome it received in this test.
Reply | inactive

Ask | Given Cc1noc(C)c1/C=N/Nc1ccc2ccccc2n1 , state the outcome it received in this test.
Reply | active

* * *

Each entry below lists one item and its recorded activation value.
test system: Nuclear hormone receptor DAF-12 (Heterodera glycines), GAL4 fusion; assay: H. glycines DAF-12 receptor agonists, primary screen, cell-based, luminescence, HEK293, GAL4 fusion, UAS-luciferase (AID 687014); conditions: HEK293 GAL4-hgDAF12 UAS-luciferase reporter, agonist luminescence; at 6.8 µM; hits give high values; normalized to butyrate control;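 note: 0% = DMSO wells and 100% = sodium butyrate wells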
Hit rate of the full screen: of about 370,000 compounds, about 6,800 (1.8%) were called active. Many of the other results were omitted from the sample, so actives are more common in it than they were.
Answer with a number only, understood to be in %.

Answered examples (3):
COMPOUND | READOUT_TYPE | MEASUREMENT
CCOc1ccc(NC(=O)C2CCCN(C(=O)Nc3ccccc3)C2)cc1 (stereo not given) | activation | 1.89
COc1cccc(C(O)c2nc(-c3ccc(C)c(C)c3)cs2)c1 (stereo not given) | activation | -0.02
C=CC1=CCN(S(=O)(=O)C(C)(C)C)[C@@H]1CCO | activation | 1.1

Ask | Looking for the measured activation of O=C(COc1cccc(Cl)c1)NCc1ccccc1 , can you help?
Reply | 10.5

Ask | Looking for the measured activation of NC(=O)C1(Nc2ccc(-c3ccccc3)cc2)CCCC1 , can you help?
Reply | 0.26

Ask | Looking for the measured activation of CC(CCN1CCC(C(O)(c2ccccc2)c2ccccc2)CC1)Oc1ccc(C(F)(F)F)cc1 (stereo not given) , can you help?
Reply | 0.45

Ask | Looking for the measured activation of CNC(=O)c1sc(Nc2ccc(OCc3ccccc3)cc2)nc1C , can you help?
Reply | -1.9
